System: Lymphocytes
Experiment: Chemokine-induced rapid adhesion of lymphocytes to ICAM-1 (LFA-1 ligand)
Assay type: cell-based
Conditions: Homo sapiens, Lymphocyte; [cpd] 50 μM; read-out: Inhibition of Adhesion (%) Lymphocytes (MIP3-β) (converted)
Observation type: inhibition at 50 µM (%)

- Compound: "COc1ccc(-c2c(C#N)n(CCN3CCOCC3)c3cc(OC)c(OC)cc23)cc1 [Example 56]"
  Observation type: "inhibition at 50 µM"
  Uom: "%"
  Reading: 12.6
- Compound: "COc1ccc(-c2c(-c3nnco3)[nH]c3cc(OC)c(OC)cc23)cc1 [Example 26]"
  Observation type: "inhibition at 50 µM"
  Uom: "%"
  Reading: 21.9
- Compound: "COC(=O)c1[nH]c2cc(OC)c(OC)cc2c1-c1ccc(OC)cc1 [Example 1]"
  Observation type: "inhibition at 50 µM"
  Uom: "%"
  Reading: 61.8
- Compound: "COCCn1c(C(=O)OC)c(-c2ccc(OC)cc2)c2cc(OC)c(OC)cc21 [Example 39]"
  Observation type: "inhibition at 50 µM"
  Uom: "%"
  Reading: 26.4
- Compound: "COc1ccc(-c2c(C(N)=O)[nH]c3cc(OC)c(OC)cc23)cc1 [Example 14]"
  Observation type: "inhibition at 50 µM"
  Uom: "%"
  Reading: 70.9
- Compound: "COc1ccc(-c2c3n(c4cc(OC)c(OC)cc24)CCOC3)cc1 [Example 76]"
  Observation type: "inhibition at 50 µM"
  Uom: "%"
  Reading: 40.3
- Compound: "CCOC(=O)c1[nH]c2cc(OC)c(OC)cc2c1-c1ccncc1 [Example 81]"
  Observation type: "inhibition at 50 µM"
  Uom: "%"
  Reading: 12.7
- Compound: "COC(=O)c1c(-c2ccc(OC)cc2)c2cc(OC)c(OC)cc2n1CCN1CCCC1 [Example 52]"
  Observation type: "inhibition at 50 µM"
  Uom: "%"
  Reading: 53.5
- Compound: "COc1ccc(-c2c3n(c4cc(OC)c(OC)cc24)CCNC3)cc1 [Example 28]"
  Observation type: "inhibition at 50 µM"
  Uom: "%"
  Reading: 34.8
